target: UniProtKB P06276; assay: Inhibition of human serum BChE using S-Butyrylthiocholine iodide as substrate preincubated for 15 mins followed by substrate addition by Ellman's method
Sequence (P06276 whole entry): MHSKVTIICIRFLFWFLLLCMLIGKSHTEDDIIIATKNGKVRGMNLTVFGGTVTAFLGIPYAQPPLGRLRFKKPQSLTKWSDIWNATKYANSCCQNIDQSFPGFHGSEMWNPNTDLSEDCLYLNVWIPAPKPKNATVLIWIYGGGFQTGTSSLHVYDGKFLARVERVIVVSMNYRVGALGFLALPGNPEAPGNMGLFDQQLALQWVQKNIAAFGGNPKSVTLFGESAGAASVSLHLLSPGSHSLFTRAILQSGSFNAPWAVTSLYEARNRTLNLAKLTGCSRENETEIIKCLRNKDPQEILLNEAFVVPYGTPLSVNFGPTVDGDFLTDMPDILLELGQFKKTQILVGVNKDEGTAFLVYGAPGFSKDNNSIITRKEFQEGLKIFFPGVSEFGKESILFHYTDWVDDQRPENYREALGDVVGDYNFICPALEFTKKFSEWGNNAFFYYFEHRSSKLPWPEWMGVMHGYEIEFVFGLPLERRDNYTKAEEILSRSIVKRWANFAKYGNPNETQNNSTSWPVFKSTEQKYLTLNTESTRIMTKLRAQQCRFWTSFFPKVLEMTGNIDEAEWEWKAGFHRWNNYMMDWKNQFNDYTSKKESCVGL
observed property: pIC50
The quantity pIC50 is defined as the negative base-10 logarithm of the molar concentration.

Worked examples follow.
[
  {
    "line notation": "CCN(C)C(=O)Oc1cccc(C(=O)/C=C/c2ccc(OC)cc2)c1",
    "pIC50": 5.41
  },
  {
    "line notation": "CCN(C)C(=O)Oc1ccc(C(=O)/C=C/c2ccc(OC)cc2)cc1",
    "pIC50": 5.13
  },
  {
    "line notation": "CCN(C)C(=O)Oc1ccc(/C=C/C(=O)c2ccc(O)cc2)cc1",
    "pIC50": 5.22
  },
  {
    "line notation": "CCN(C)C(=O)Oc1cccc(/C=C/C(=O)c2cccc(O)c2)c1",
    "pIC50": 5.54
  },
  {
    "line notation": "CCN(C)C(=O)Oc1ccc(/C=C/C(=O)c2cccc(O)c2)cc1",
    "pIC50": 5.25
  },
  {
    "line notation": "CCN(C)C(=O)Oc1cccc(C(=O)/C=C/c2ccc(O)cc2)c1",
    "pIC50": 5.36
  },
  {
    "line notation": "CN(C)C(=O)Oc1cccc(/C=C/C(=O)c2cccc(O)c2)c1",
    "pIC50": 5.72
  },
  {
    "line notation": "CCN(C)C(=O)Oc1cccc(/C=C/C(=O)c2ccc(O)cc2)c1",
    "pIC50": 5.60
  },
  {
    "line notation": "CN(C)C(=O)Oc1ccc(/C=C/C(=O)c2ccc(O)cc2)cc1",
    "pIC50": 5.35
  },
  {
    "line notation": "CN(C)C(=O)Oc1cccc(/C=C/C(=O)c2ccc(O)cc2)c1",
    "pIC50": 5.66
  }
]

Which pIC50 is reported for this compound? "COc1ccc(/C=C/C(=O)c2cccc(OC(=O)N(C)C)c2)cc1"
5.47

Reported pIC50, compound "CN(C)C(=O)Oc1cccc(C(=O)/C=C/c2ccc(O)cc2)c1" : ____
6.44
